molecular target: human DLL3 protein (extracellular segment, His tag) (human) (UniProt Q9NYJ7); assay: SPR (Biacore 8K), antibody captured on Protein A chip, DLL3 antigen in solution, 1:1 Langmuir fit
Sequence (Q9NYJ7 27-492): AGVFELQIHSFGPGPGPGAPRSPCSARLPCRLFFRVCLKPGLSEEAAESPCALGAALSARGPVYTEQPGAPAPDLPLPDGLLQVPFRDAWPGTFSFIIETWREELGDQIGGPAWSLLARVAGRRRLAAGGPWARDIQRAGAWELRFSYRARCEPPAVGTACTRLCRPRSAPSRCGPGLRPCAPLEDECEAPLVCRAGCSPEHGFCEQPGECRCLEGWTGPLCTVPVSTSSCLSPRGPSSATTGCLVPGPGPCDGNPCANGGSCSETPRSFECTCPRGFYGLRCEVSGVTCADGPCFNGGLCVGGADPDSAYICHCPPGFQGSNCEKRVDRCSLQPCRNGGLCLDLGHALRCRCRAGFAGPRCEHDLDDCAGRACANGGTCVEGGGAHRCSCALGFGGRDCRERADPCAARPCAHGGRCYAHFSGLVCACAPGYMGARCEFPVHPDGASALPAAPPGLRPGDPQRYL
Readout Type: kon (M⁻¹ s⁻¹)
# unit: M⁻¹ s⁻¹ | format: bare number

Worked examples follow.
mab014 scFv-hFc (Fc fusion, part only; not given: Linker and human IgG1 Fc, not shown: a dimerising Fc or GST) scFv, part: DIQMTQSSSSFSVSLGDRVTITCKASEDIYNRLAWYQQKPGNTPRLLISGATSLETGVPSRFSGSGSGKDFTLSITSLQTEDVATYYCQQYWSLPWTFGGGTKLEIKEVQLHQSGPELVKPGTSVKISCKASGYTFTDYYMNWVKQSHGKSLEWIGDINPNHGDTGYNQKFTGKATLTVDKSSSTAYMELRSLTSEDSAVYYCARNFFYYGTTYGWYFDVWGTGTTVTVSS
848000
Hab014VL3VH1-hFc (scFv, part only; not given: VL-VH linker and human IgG1 Fc, V domains shown, not shown: another chain or arm of the molecule; a dimerising Fc or GST; small tags and cut ends) VL: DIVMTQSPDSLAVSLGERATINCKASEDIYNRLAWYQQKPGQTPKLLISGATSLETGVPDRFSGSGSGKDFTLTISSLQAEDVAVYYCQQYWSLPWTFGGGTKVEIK VH: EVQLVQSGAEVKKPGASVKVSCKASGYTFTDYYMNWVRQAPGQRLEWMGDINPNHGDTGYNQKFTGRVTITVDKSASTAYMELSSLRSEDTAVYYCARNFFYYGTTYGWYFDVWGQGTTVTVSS
1.36e+06
Hab013VL2VH2a-hFc (scFv, part only; not given: scFv linker and human IgG1 Fc, V domains shown, not shown: another chain or arm of the molecule; a dimerising Fc or GST; small tags and cut ends) VL: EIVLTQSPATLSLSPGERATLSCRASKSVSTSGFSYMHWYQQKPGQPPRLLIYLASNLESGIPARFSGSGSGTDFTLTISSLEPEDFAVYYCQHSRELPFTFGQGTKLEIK VH: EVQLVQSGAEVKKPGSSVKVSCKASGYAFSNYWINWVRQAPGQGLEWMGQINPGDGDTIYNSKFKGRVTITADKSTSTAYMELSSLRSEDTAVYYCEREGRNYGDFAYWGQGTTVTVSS
3.32e+06

Now for the binder whose kon we want.
Exercise: // returns reported kon for input Hab006VL4VH1-hFc (scFv, part only; not given: scFv linker and human IgG1 Fc, V domains shown, not shown: another chain or arm of the molecule; a dimerising Fc or GST; small tags and cut ends) VL: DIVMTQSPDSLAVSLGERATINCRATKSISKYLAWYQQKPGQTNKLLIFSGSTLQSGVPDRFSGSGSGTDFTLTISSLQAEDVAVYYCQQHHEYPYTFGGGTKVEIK VH: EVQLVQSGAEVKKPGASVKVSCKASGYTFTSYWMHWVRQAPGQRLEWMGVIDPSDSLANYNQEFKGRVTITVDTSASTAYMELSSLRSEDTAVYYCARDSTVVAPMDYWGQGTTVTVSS
Key: 415000

Reference source for all entries: patent EP4786492A1
